The measurements presented in this section are drawn from paper PMC5540273.

Test system: CHEK2
Condition Notes: concentration: 1 μM, replicates: in singlicate; n = 1;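 further: KINOMEscan kinase panel screen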

Compound: COc1cc2c(cc1OCCN1CCNCC1)ncc1c3ccc(C#N)cc3[nH]c21
%Inh: 46%

Compound: CSc1cccc2c(-c3ccncn3)c(-c3ccc(F)cc3)nn12
%Inh: 0%

Compound: Cl.Cl.NCC(NCc1ccc(-c2ccnc3[nH]ccc23)s1)c1ccccc1 (centres unmarked)
%Inh: 33%

Compound: Cn1cc(-c2[nH]c3cc(NC(=O)[C@H](N)C4CCCCC4)cc4c3c2C=NNC4=O)cn1
%Inh: 96.6%

Compound: CN(C)S(=O)(=O)c1cc(-c2ccc3nccc(-c4cccc(S(N)(=O)=O)c4)c3c2)cnc1N
%Inh: 0%

Compound: C[C@@H]1CC[C@@H](C(=O)Nc2ccccc2)CN1c1cc(-c2ccc3c(N)n[nH]c3c2)nc(N)n1
%Inh: 26%

Compound: Nc1ncnc2c1nc(-c1ccccc1)n2-c1ccccc1
%Inh: 11%

Compound: COc1cc(Nc2nccc(N3CCC(NC(=O)Nc4cccc(C(C)=O)c4)C3)n2)cc(OC)c1OC (centres unmarked)
%Inh: 0%

###

Tested on: DMPK
Condition Notes: concentration: 1 μM, replicates: in singlicate; n = 1

Molecule: O=C(Nc1cccc(-c2nn3ccccc3c2-c2ccnc(Nc3cccc(C(F)(F)F)c3)n2)c1)c1c(F)cccc1F [GSK292658]
Target Under Test: DMPK
%Inh [%]: 0

Molecule: COc1cccc(C(=O)Nc2cccc(Oc3ccc4nc(NC(=O)C5CC5)cn4n3)c2)c1
Target Under Test: DMPK
%Inh [%]: 0

Molecule: Cc1ccc(S(=O)(=O)Nc2ccc(Nc3nccc(Nc4cccc5[nH]ncc45)n3)cc2)cc1 [GSK581271]
Target Under Test: DMPK
%Inh [%]: 0

Molecule: Cc1ccc(F)c(C(=O)Nc2cccc(-c3nn4ccccc4c3-c3ccnc(Nc4cccc(F)c4)n3)c2)c1F [GSK361061]
Target Under Test: DMPK
%Inh [%]: 13

Molecule: CN1CCN(Cc2cccc(-c3ccc4c(Nc5ccc(Oc6ccccc6)cc5)ccnc4c3)c2)CC1 [GW578342]
Target Under Test: DMPK
%Inh [%]: 0

Molecule: COc1cccc(NC(=O)NC2CCN(c3ccnc(Nc4cc(OC)c(OC)c(OC)c4)n3)C2)c1 (centres unmarked) [GSK1379763]
Target Under Test: DMPK
%Inh [%]: 0

Molecule: COCCOCCOc1cc2ncc3c4ccc(C#N)cc4[nH]c3c2cc1OC
Target Under Test: DMPK
%Inh [%]: 3

Molecule: CN(c1ccc(NC(=O)Nc2cc(C(F)(F)F)ccc2F)cc1)c1ccnc(Nc2ccc(S(N)(=O)=O)cc2)n1 [GW809893]
Target Under Test: DMPK
%Inh [%]: 0

Molecule: CC(C)(C)c1ccc2nccc(Nc3cccc(O)c3)c2c1 [GW856795]
Target Under Test: DMPK
%Inh [%]: 3

Molecule: c1ccc(Oc2ccc(Nc3ccnc4cc(-c5ccc(CNCCN6CCOCC6)o5)ccc34)cc2)nc1 [GW567145]
Target Under Test: DMPK
%Inh [%]: 0

Molecule: Cn1cc(-c2ccc3c(c2)CCN3C(=O)Cc2cccc(Cl)c2)c2c(N)ncnc21 [GSK2606590]
Target Under Test: DMPK
%Inh [%]: 0

Molecule: O=C(NC1CCN(c2ccnc(Nc3ccc(F)cc3)n2)C1)c1cc2ccccc2s1 (centres unmarked) [GSK1379716]
Target Under Test: DMPK
%Inh [%]: 0

Molecule: c1ccc(-c2cnc3nccnn23)cc1 [AH20685]
Target Under Test: DMPK
%Inh [%]: 0

Molecule: CC(=O)Nc1nc2cnc(Nc3cc(NC(=O)c4cccc(C5(C#N)CC5)c4Cl)ccc3C)nc2s1
Target Under Test: DMPK
%Inh [%]: 0

Molecule: Cl.Cl.NCC(C(=O)Nc1cc(Br)c(-c2ccnc3[nH]ccc23)s1)c1ccccc1 (centres unmarked) [GSK1269851]
Target Under Test: DMPK
%Inh [%]: 27

Molecule: O=C(Nc1n[nH]c2cc(-c3ccoc3)ccc12)C1CC1 [SB-738481]
Target Under Test: DMPK
%Inh [%]: 0

Molecule: Cn1cc(-c2[nH]c3cc(NC(=O)[C@H](N)C4CCCCC4)cc4c3c2C=NNC4=O)cn1
Target Under Test: DMPK
%Inh [%]: 82

###

Test system: PIK3CA
Condition Notes: concentration: 1 μM, replicates: in singlicate; n = 1
Listing of entries alongside the reported %Inh.

Compound: COc1cccc(C(=O)Nc2cccc(Oc3ccc4nc(NC(=O)C5CC5)cn4n3)c2)c1
%Inh [%]: 0

Compound: Cc1ccc(C(=O)N2CC[C@@H](O)C2)cc1-n1c(C)cc(OCc2ccc(F)cc2F)c(Br)c1=O
%Inh [%]: 0

Compound: Cc1ccc(S(=O)(=O)Nc2ccc(Nc3nccc(Nc4cccc5[nH]ncc45)n3)cc2)cc1 [GSK581271]
%Inh [%]: 0

Compound: COc1cc(Nc2ncc3c(C)nc(-c4cc5ccccc5[nH]4)n3n2)cc(OC)c1OC [GW869516]
%Inh [%]: 0

Compound: Cn1cc(-c2ccc3c(c2)CCN3C(=O)Cc2cccc(F)c2)c2c(N)ncnc21 [GSK2603358]
%Inh [%]: 3

Compound: CCc1ccc(-c2ccc3c(c2)-c2c(cnn2C)S(=O)(=O)N3C)cc1
%Inh [%]: 5

Compound: O=C(Nc1cccc(-c2nn3ccccc3c2-c2ccnc(Nc3cccc(F)c3)n2)c1)c1c(F)ccc(F)c1Cl [GSK357952]
%Inh [%]: 0

Compound: O=C(Nc1cccc(-c2nn3ccccc3c2-c2ccnc(Nc3cccc(C(F)(F)F)c3)n2)c1)c1c(F)cccc1F [GSK292658]
%Inh [%]: 0

###

In this section we review reported %Inh values for a set of compounds.
Tested on: PIK3C2G
Condition Notes: concentration: 1 μM, replicates: in singlicate; n = 1
Quantity Name: %Inh (%)

Compound: O=C(Nc1cccc(-c2nn3ccccc3c2-c2ccnc(Nc3cccc(C(F)(F)F)c3)n2)c1)c1c(F)cccc1F
Quantity Name: %Inh
Measured Number: 22
--
Compound: COc1ccc(Nc2nccc(NCCNC(=O)c3cc4ccccc4s3)n2)cc1
Quantity Name: %Inh
Measured Number: 0
--
Compound: c1ccc(-c2cnc3nccnn23)cc1
Quantity Name: %Inh
Measured Number: 0
--
Compound: CCn1c(-c2nonc2N)nc2c(C#CC(C)(C)O)nc(OC[C@H](N)c3ccccc3)cc21
Quantity Name: %Inh
Measured Number: 11
--
Compound: O=C(Nc1n[nH]c2nc(-c3ccc(O)cc3)ccc12)C1CC1
Quantity Name: %Inh
Measured Number: 0
--
Compound: Cn1cc(-c2ccc3c(c2)CCN3C(=O)Cc2cccc(F)c2)c2c(N)ncnc21
Quantity Name: %Inh
Measured Number: 0
--
Compound: O=C(NC1CCN(c2ccnc(Nc3ccc(F)cc3)n2)C1)c1cc2ccccc2s1 (stereo not drawn)
Quantity Name: %Inh
Measured Number: 0
--
Compound: Cc1ccc(F)c(C(=O)Nc2cccc(-c3nn4ccccc4c3-c3ccnc(Nc4cccc(F)c4)n3)c2)c1F
Quantity Name: %Inh
Measured Number: 0
--
Compound: Cc1ccc(C(=O)Nc2ccc(Nc3ccnc4cc(-c5nccs5)ccc34)cc2O)cc1.Cl
Quantity Name: %Inh
Measured Number: 23

###

Test system: MEK6
Construct: gene MAP2K6
Condition Notes: concentration: 1 μM, replicates: in singlicate; n = 1
Quantity Name: %Inh (%)

Compound: Cc1ccc(F)c(C(=O)Nc2cccc(-c3nn4ccccc4c3-c3ccnc(Nc4cccc(F)c4)n3)c2)c1F
Quantity Name: %Inh
Measured Number: 18
--
Compound: O=C(NC1CCN(c2ccnc(Nc3ccc(F)cc3)n2)C1)c1cc2ccccc2s1 (centres unmarked)
Quantity Name: %Inh
Measured Number: 1
--
Compound: Nc1ncc(-c2cccnc2)c2scc(-c3ccc4c(c3)CCN4C(=O)Cc3ccccc3)c12
Quantity Name: %Inh
Measured Number: 0
--
Compound: O=C(Nc1n[nH]c2cc(-c3ccoc3)ccc12)C1CC1
Quantity Name: %Inh
Measured Number: 0
--
Compound: Cl.NC(=O)c1cccc(Nc2nccc(Nc3ccc(Oc4c(Cl)cccc4Cl)c(Cl)c3)n2)c1
Quantity Name: %Inh
Measured Number: 0
--
Compound: CC(=O)Nc1nc2cnc(Nc3cc(NC(=O)c4cccc(C5(C#N)CC5)c4Cl)ccc3C)nc2s1
Quantity Name: %Inh
Measured Number: 25
--
Compound: COc1cccc(C(=O)Nc2cccc(Oc3ccc4nc(NC(=O)C5CC5)cn4n3)c2)c1
Quantity Name: %Inh
Measured Number: 0
--
Compound: O=C(O)C(F)(F)F.O=C(O)C(F)(F)F.O=c1[nH]ccc2nc(N[C@@H]3CCCNC3)nc(Nc3ccc(S(=O)(=O)N4CCOCC4)cc3)c12
Quantity Name: %Inh
Measured Number: 86

###

Examples of compounds with documented %Inh follow.
System: TNIK
Condition Notes: concentration: 1 μM, replicates: in singlicate; n = 1

Compound: Cn1cc(-c2ccc3c(c2)CCN3C(=O)Cc2cccc(F)c2)c2c(N)ncnc21
%Inh, %: 0

Compound: O=C(Nc1cccc(-c2nn3ccccc3c2-c2ccnc(Nc3cccc(C(F)(F)F)c3)n2)c1)c1c(F)cccc1F
%Inh, %: 0

Compound: COc1cc2c(cc1OCCN1CCNCC1)ncc1c3ccc(C#N)cc3[nH]c21
%Inh, %: 76

Compound: O=C(Nc1n[nH]c2cc(-c3ccoc3)ccc12)C1CC1
%Inh, %: 42

Compound: Cn1cc(-c2ccc3c(c2)CCN3C(=O)Cc2cccc(Cl)c2)c2c(N)ncnc21
%Inh, %: 7

Compound: CC(=O)Nc1nc2cnc(Nc3cc(NC(=O)c4cccc(C5(C#N)CC5)c4Cl)ccc3C)nc2s1
%Inh, %: 16

Compound: Cc1ccc(F)c(C(=O)Nc2cccc(-c3nn4ccccc4c3-c3ccnc(Nc4cccc(F)c4)n3)c2)c1F
%Inh, %: 29

Compound: CCn1c(-c2nonc2N)nc2c(C#CC(C)(C)O)nc(OC[C@H](N)c3ccccc3)cc21
%Inh, %: 4

Compound: Cl.NC(=O)c1cccc(Nc2nccc(Nc3ccc(Oc4c(Cl)cccc4Cl)c(Cl)c3)n2)c1
%Inh, %: 0

Compound: CN1CCN(CCCNc2nccc(-c3c(-c4ccc(F)cc4)nn4cc(C(F)(F)F)ccc34)n2)CC1
%Inh, %: 24

Compound: NCCCC(NC(=O)c1cc(Br)c(-c2ccnc3[nH]ccc23)s1)c1ccccc1.O=C(O)C(F)(F)F.O=C(O)C(F)(F)F (stereo not shown)
%Inh, %: 3

Compound: Fc1ccc(-c2ncn(C3CCNCC3)c2-c2ccnc(Oc3ccc(-c4ccccc4)cc3)n2)cc1
%Inh, %: 11

Compound: Cc1cccc(NC(=O)Nc2ccc(Oc3ncnc4ccn(C)c34)cc2)c1
%Inh, %: 8

Compound: COC(=O)Nc1nc2cc(Oc3ccc(NC(=O)Nc4cc(C(F)(F)F)ccc4F)cn3)ccc2[nH]1.Cl.Cl
%Inh, %: 0

Compound: Cl.Cl.NCC(NCc1ccc(-c2ccnc3[nH]ccc23)s1)c1ccccc1 (stereo not shown)
%Inh, %: 0

Compound: O=C(O)C(F)(F)F.O=C(O)C(F)(F)F.O=c1[nH]ccc2nc(N[C@@H]3CCCNC3)nc(Nc3ccc(S(=O)(=O)N4CCOCC4)cc3)c12
%Inh, %: 99.5

Compound: Cl.Cl.NCC(C(=O)Nc1cc(Br)c(-c2ccnc3[nH]ccc23)s1)c1ccccc1 (stereo not shown)
%Inh, %: 11

Compound: Oc1cc(Nc2ccnc3cc(I)ccc23)ccc1F
%Inh, %: 47

Compound: FC(F)(F)c1ccc(/C=C/c2cncnc2Nc2ccc3[nH]c(Cc4ccccc4)nc3c2)cc1
%Inh, %: 0

Compound: O=C(Nc1cccc(Oc2ccc3nc(NC(=O)C4CC4)cn3n2)c1)c1ccccc1C(F)(F)F
%Inh, %: 9

Compound: CN(C)Cc1ccc(-c2ccc3c(Nc4ccc(Oc5ccccn5)cc4)ccnc3c2)o1
%Inh, %: 20

Compound: Cc1occc1-c1ncc(OC[C@@H](N)Cc2c[nH]c3ccccc23)cc1-c1ccc2[nH]nc(C)c2c1.O=C(O)C(F)(F)F
%Inh, %: 97.2

Compound: CN(C)S(=O)(=O)c1cc(-c2ccc3nccc(-c4cccc(S(N)(=O)=O)c4)c3c2)cnc1N
%Inh, %: 13

Compound: Cl.c1ccc(-c2ccc3c(Nc4ccc5[nH]ccc5c4)ccnc3c2)nc1
%Inh, %: 58

Compound: O=C(Nc1cccc(-c2nn3ccccc3c2-c2ccnc(Nc3cccc(F)c3)n2)c1)c1c(F)ccc(F)c1Cl
%Inh, %: 0

Compound: c1ccc(-c2cnc3nccnn23)cc1
%Inh, %: 0

Compound: CC(C)(C)c1ccc2nccc(Nc3cccc(O)c3)c2c1
%Inh, %: 0

Compound: CCn1c(-c2nonc2N)nc2c(C#CC(C)(C)O)ncc(OCCCCN)c21.O=C(O)C(F)(F)F.O=C(O)C(F)(F)F
%Inh, %: 0

Compound: O=c1[nH]cc(-c2ccc(N3CCOCC3)cc2)c2sc(-c3cn[nH]c3)cc12
%Inh, %: 10

Compound: COc1ccc(Nc2nccc(N3CCC(NC(=O)Nc4cccc(OC)c4)C3)n2)cc1 (stereo not shown)
%Inh, %: 0

Compound: COc1cccc(-c2ccc3c(NC(=O)C4CC4)n[nH]c3n2)c1
%Inh, %: 82

Compound: CCCCc1nn2ncccc2c1-c1ccnc(Nc2ccc(N3CCN(C)CC3)cc2)n1
%Inh, %: 25

Compound: Cc1ccc(C(=O)N2CC[C@@H](O)C2)cc1-n1c(C)cc(OCc2ccc(F)cc2F)c(Br)c1=O
%Inh, %: 0

Compound: Nc1ncc(-c2ccc3nccc(-c4ccncc4)c3c2)cc1S(=O)(=O)N1CCOCC1
%Inh, %: 0
